Target: UniProt:P21802
Experiment: FGFR wild type enzyme assay (HTRF KinEASE-TK), FGFR2
Conditions: Enz FGFR2 (nM), FGFR2 wild type enzyme assay
Endpoint: IC50 (nM)
Express the result in nM but write the number alone.

### Prompt Can you share its IC50? I mean this compound: CN(C)C(=O)Cn1cc(-c2cc(Sc3ccccc3C#N)c3c(C#N)cnn3c2)cn1
### Response 1

Others:
### Prompt Can you share its IC50? I mean this compound: C[C@H](O)C(=O)N1CCC[C@H](n2cc(-c3cc(Sc4ccccc4C#N)c4c(C#N)cnn4c3)cn2)C1
### Response 0.5

### Prompt Can you share its IC50? I mean this compound: CC(=O)N1CCC(n2ncc(-c3cc(Sc4nc(C)c(Cl)cc4F)c4c(C#N)cnn4c3)c2C)CC1
### Response 2

====

Biological target: FGFR2 (Homo sapiens)
Sequence (P21802 399-821 limits assumed): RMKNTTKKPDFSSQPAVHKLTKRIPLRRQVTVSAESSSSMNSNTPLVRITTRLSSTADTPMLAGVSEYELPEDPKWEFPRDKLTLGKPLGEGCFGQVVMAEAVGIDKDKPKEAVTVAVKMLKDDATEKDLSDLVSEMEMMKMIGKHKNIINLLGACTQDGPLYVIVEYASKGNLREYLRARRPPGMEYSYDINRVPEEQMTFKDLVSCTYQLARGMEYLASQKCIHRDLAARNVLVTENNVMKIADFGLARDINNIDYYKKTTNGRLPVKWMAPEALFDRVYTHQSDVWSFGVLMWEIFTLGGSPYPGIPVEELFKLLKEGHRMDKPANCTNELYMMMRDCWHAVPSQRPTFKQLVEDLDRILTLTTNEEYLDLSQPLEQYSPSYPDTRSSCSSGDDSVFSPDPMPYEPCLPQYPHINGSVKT
Assay: FGFR wild type enzyme assay (HTRF KinEASE-TK), FGFR2
Details: Enz FGFR2 (nM), FGFR2 wild type enzyme
Endpoint: IC50 (nM)
Express the result in nM but write the number alone.

### Prompt Can you share its IC50? I mean this compound: Cc1c(-c2cc(Sc3ncccc3F)c3c(C#N)cnn3c2)cnn1C1CCN(C(=O)[C@H](C)N(C)C)CC1
### Response 1.6

### Prompt Can you share its IC50? I mean this compound: CCN[C@H]1CC[C@@H](n2ncc(-c3cc(Sc4ccccc4C#N)c4c(C#N)cnn4c3)c2C)CC1
### Response 0.4

### Prompt Can you share its IC50? I mean this compound: Cc1c(-c2cc(Sc3ncccc3F)c3c(C#N)cnn3c2)cnn1[C@H]1CCCN(C(=O)CO)C1
### Response 2

### Prompt Can you share its IC50? I mean this compound: Cc1c(-c2cc(Sc3ncccc3F)c3c(C#N)cnn3c2)cnn1C1CCC(N(C)C(=O)CN(C)C)CC1 (stereo not drawn)
### Response 1

====

Quick reference for IC50 among some compounds
Target: FGFR2 (Homo sapiens)
Experiment: FGFR wild type enzyme assay (HTRF KinEASE-TK), FGFR2
Settings: Enz FGFR2 (nM), FGFR2 wild type enzyme
Express the result in nM but write the number alone.

Here's what some known entries look like.
### Prompt Can you share its IC50? I mean this compound: Cc1c(-c2cc(Sc3ncccc3F)c3c(C#N)cnn3c2)cnn1[C@H]1CC[C@@]2(CCNC2)CC1
### Response 1

### Prompt Can you share its IC50? I mean this compound: Cc1c(-c2cc(Sc3ncccc3F)c3c(C#N)cnn3c2)cnn1C1CCN(C[C@H](C)O)CC1
### Response 1.5

### Prompt Can you share its IC50? I mean this compound: Cc1c(-c2cc(Sc3ncccc3F)c3c(C#N)cnn3c2)cnn1C[C@H]1CCCNC1
### Response 3

Others:
### Prompt Can you share its IC50? I mean this compound: CC(=O)N[C@H]1CC[C@@H](n2ncc(-c3cc(Sc4ncccc4F)c4c(C#N)cnn4c3)c2C)CC1
### Response 5

====

Biological target: FGFR2 (Homo sapiens)
Test: FGFR wild type enzyme assay (HTRF KinEASE-TK), FGFR2
Conditions: Enz FGFR2 (nM), FGFR2 wild type enzyme assay
Endpoint: IC50 (nM)
Express the result in nM but write the number alone.

Here's what some known entries look like.
### Prompt Param readout = IC50; param system = FGFR2 (Homo sapiens); param query = CS(=O)(=O)N1CCC(n2cc(-c3cc(Sc4ccccc4C#N)c4c(C#N)cnn4c3)cn2)CC1 ; response: value
### Response 1

### Prompt Param readout = IC50; param system = FGFR2 (Homo sapiens); param query = CN1CCC(n2ncc(-c3cc(Sc4ncccc4F)c4c(C#N)cnn4c3)c2Cl)CC1 ; response: value
### Response 3

### Prompt Param readout = IC50; param system = FGFR2 (Homo sapiens); param query = Cc1c(-c2cc(Sc3ccc(F)cc3C#N)c3c(C#N)cnn3c2)cnn1[C@H]1CCCN(C)C1 ; response: value
### Response 1

### Prompt Param readout = IC50; param system = FGFR2 (Homo sapiens); param query = CC(=O)N1CCC[C@@H](n2cc(-c3cc(Sc4ccccc4C#N)c4c(C#N)cnn4c3)cn2)C1 ; response: value
### Response 1

### Prompt Param readout = IC50; param system = FGFR2 (Homo sapiens); param query = N#Cc1ccccc1Sc1cc(-c2ccc(N3CCNCC3)nc2)cn2ncc(C#N)c12 ; response: value
### Response 1

### Prompt Param readout = IC50; param system = FGFR2 (Homo sapiens); param query = COC(=O)N[C@H]1CC[C@@H](n2ncc(-c3cc(Sc4ccc(F)cc4C#N)c4c(C#N)cnn4c3)c2C)CC1 ; response: value
### Response 1

### Prompt Param readout = IC50; param system = FGFR2 (Homo sapiens); param query = CC(=O)N1CCCC(n2cc(-c3cc(Sc4ccccc4C#N)c4c(C#N)cnn4c3)cn2)CC1 (centres unmarked) ; response: value
### Response 0.4

Moving on to another molecule below.
### Prompt Param readout = IC50; param system = FGFR2 (Homo sapiens); param query = N#Cc1cnn2cc(-c3cnn([C@H]4CCNC4)c3)cc(Sc3ncccc3F)c12 ; response: value
### Response 5

====

Target: UniProt:P21802
Experiment: FGFR wild type enzyme assay (HTRF KinEASE-TK), FGFR2
Details: Enz FGFR2 (nM), FGFR2 wild type enzyme assay
Quick reference for IC50 among some compounds
Express the result in nM but write the number alone.

### Prompt Param readout = IC50; param system = UniProt:P21802; param query = COC(=O)N1CC[C@H](n2cc(-c3cc(Sc4ncccc4F)c4c(C#N)cnn4c3)cn2)C1 ; response: value
### Response 1

### Prompt Param readout = IC50; param system = UniProt:P21802; param query = CC1(C)C[C@H](n2cc(-c3cc(Sc4ccccc4C#N)c4c(C#N)cnn4c3)cn2)CCN1 ; response: value
### Response 0.3

### Prompt Param readout = IC50; param system = UniProt:P21802; param query = CC(=O)N1CCC(n2cc(-c3cc(Sc4ncccc4F)c4c(C#N)cnn4c3)c(C)n2)CC1 ; response: value
### Response 7

### Prompt Param readout = IC50; param system = UniProt:P21802; param query = CC(C)(O)CN1CC[C@H](n2cc(-c3cc(Sc4ncccc4F)c4c(C#N)cnn4c3)cn2)C1 ; response: value
### Response 1

### Prompt Param readout = IC50; param system = UniProt:P21802; param query = N#Cc1cnn2cc(-c3ccc(N4CCCC4)nc3)cc(Sc3ncccc3F)c12 ; response: value
### Response 2

### Prompt Param readout = IC50; param system = UniProt:P21802; param query = CC(=O)N1CCC(N(C)c2ccc(-c3cc(Sc4ccccc4C#N)c4c(C#N)cnn4c3)cn2)CC1 ; response: value
### Response 0.3

Others:
### Prompt Param readout = IC50; param system = UniProt:P21802; param query = N#Cc1cnn2cc(-c3cnn(CCCO)c3)cc(Sc3ncccc3F)c12 ; response: value
### Response 2

### Prompt Param readout = IC50; param system = UniProt:P21802; param query = C[C@]1(O)CC[C@H](n2cc(-c3cc(Sc4ccc(F)cc4C#N)c4c(C#N)cnn4c3)cn2)CC1 ; response: value
### Response 1

====

Target: FGFR2 (Homo sapiens)
Assay: FGFR wild type enzyme assay (HTRF KinEASE-TK), FGFR2
Settings: Enz FGFR2 (nM), FGFR2 wild type enzyme assay
Quick reference for IC50 among some compounds
Express the result in nM but write the number alone.

### Prompt Can you share its IC50? I mean this compound: CC(=O)N1CC[C@H](n2cc(-c3cc(Sc4ccccc4C#N)c4c(C#N)cnn4c3)cn2)[C@@H](O)C1
### Response 1

### Prompt Can you share its IC50? I mean this compound: CN1CC[C@@H](n2cc(-c3cc(Sc4ccccc4C#N)c4c(C#N)cnn4c3)cn2)C1
### Response 0.5

### Prompt Can you share its IC50? I mean this compound: N#Cc1cc(F)ccc1Sc1cc(-c2ccc(N3C[C@H](O)[C@@H](O)C3)nc2)cn2ncc(C#N)c12
### Response 3

### Prompt Can you share its IC50? I mean this compound: N#Cc1cnn2cc(-c3cnn(C[C@@H](O)CO)c3)cc(Sc3ncccc3F)c12
### Response 2

### Prompt Can you share its IC50? I mean this compound: CN1CC(n2cc(-c3cc(Sc4ncccc4F)c4c(C#N)cnn4c3)cn2)CCC1=O (stereo not shown)
### Response 3

### Prompt Can you share its IC50? I mean this compound: Cc1c(-c2cc(Sc3ccc(F)cc3C#N)c3c(C#N)cnn3c2)cnn1[C@@H]1CCC[C@H](O)C1
### Response 1

### Prompt Can you share its IC50? I mean this compound: N#Cc1ccccc1Sc1cc(-c2cnn(CC(F)F)c2)cn2ncc(C#N)c12
### Response 1

### Prompt Can you share its IC50? I mean this compound: N#Cc1cc(F)ccc1Sc1cc(-c2ccc(N3CC[C@H](O)C3)nc2)cn2ncc(C#N)c12
### Response 1

### Prompt Can you share its IC50? I mean this compound: CC(=O)N1CCC(n2cc(-c3cc(Sc4ncccc4F)c4c(C#N)cnn4c3)cn2)CC1
### Response 1

### Prompt Can you share its IC50? I mean this compound: N#Cc1cnn2cc(-c3cn([C@H]4CCCNC4)nc3CO)cc(Sc3ncccc3F)c12
### Response 69

Others:
### Prompt Can you share its IC50? I mean this compound: N#Cc1cc(F)ccc1Sc1cc(-c2ccc(N3CC[C@@H](O)C3)nc2)cn2ncc(C#N)c12
### Response 2

### Prompt Can you share its IC50? I mean this compound: CN[C@H]1CC[C@H](n2ncc(-c3cc(Sc4ccccn4)c4c(C#N)cnn4c3)c2C)CC1
### Response 2.5

### Prompt Can you share its IC50? I mean this compound: N#Cc1cc(F)ccc1Sc1cc(-c2cnn(C3CCN(C(=O)CO)CC3)c2)cn2ncc(C#N)c12
### Response 1

### Prompt Can you share its IC50? I mean this compound: N#Cc1cc(F)ccc1Sc1cc(-c2ccc(N3C[C@@H](O)[C@H](O)C3)nc2)cn2ncc(C#N)c12
### Response 1.6

### Prompt Can you share its IC50? I mean this compound: N#Cc1ccccc1Sc1cc(-c2ccc(N3C[C@@H](O)[C@@H](O)C3)nc2)cn2ncc(C#N)c12
### Response 1

### Prompt Can you share its IC50? I mean this compound: CN(C)c1ccc(-c2cc(Sc3ccc(F)cc3C#N)c3c(C#N)cnn3c2)cn1
### Response 2
